- Test target: MAP kinase-interacting serine/threonine-protein kinase 2 (Homo sapiens) (UniProt Q9HBH9)
- Sequence (Q9HBH9 whole entry, looked up): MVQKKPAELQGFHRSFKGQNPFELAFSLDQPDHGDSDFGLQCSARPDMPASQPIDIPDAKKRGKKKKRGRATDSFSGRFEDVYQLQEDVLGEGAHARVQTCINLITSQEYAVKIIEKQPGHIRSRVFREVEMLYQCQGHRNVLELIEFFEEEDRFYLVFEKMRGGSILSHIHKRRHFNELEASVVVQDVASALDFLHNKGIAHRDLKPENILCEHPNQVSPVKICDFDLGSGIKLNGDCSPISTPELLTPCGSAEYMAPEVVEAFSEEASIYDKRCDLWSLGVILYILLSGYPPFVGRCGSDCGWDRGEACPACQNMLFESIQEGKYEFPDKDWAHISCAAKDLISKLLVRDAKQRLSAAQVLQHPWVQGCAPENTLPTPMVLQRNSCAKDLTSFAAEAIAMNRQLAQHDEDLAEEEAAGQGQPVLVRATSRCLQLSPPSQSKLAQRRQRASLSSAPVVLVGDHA
- Assay setup: at 0.1 µM
- Description: GSK_PKIS: MNK2 mean inhibition at 0.1 uM [Nanosyn]
Quantity name: inhibition (%)
Give bare numbers, in %.

Hi, could you look up inhibition for each item in my list?
1. Cc1ccc(C(=O)NC2CCC2)cc1-c1ccc(C(=O)NCC2CC2)cc1
2. COc1ccc(-c2ccc3c(NC(=O)C4CC4)n[nH]c3n2)cc1
3. O=C(Nc1n[nH]c2cc(-c3cc(F)ccc3F)ccc12)C1CC1
4. NS(=O)(=O)c1ccc(N/N=C2\C(=O)Nc3ccc(C(=O)NCCCn4ccnc4)cc32)cc1
5. Fc1ccc(-c2c(-c3ccncc3)nc3n2CCS3)cc1

1. 0.84
2. 1.32
3. 1.25
4. 3.98
5. 0.34
